system: Mus musculus; assay: Tumor versus muscle uptake ratio in mice (implanted with RIFtumor)by in vivo reflectance spectroscopy at 5 min, 24 hr and 48 hr post injection (5.0 umol/kg); format: functional, Muscle tissue
Below, each of the compounds is paired with its reported Ratio value.
No unit in the answer, please; the number alone is enough.

Consider the reported Ratio for these compounds:
[[record]]
compound = "CCCCCCCCCCOC(C)C1=C(C)c2cc3nc(c4c5[nH]c(cc6[nH]c(cc1n2)c(C)c6CC)c(C)c5C(=O)N(CCCCCC)C4=O)[C@@H](CCC(=O)OC)[C@@H]3C (stereo partly drawn)"
observed_value = 3.23

[[record]]
compound = "CCCCCCNC(=O)CC[C@@H]1c2nc(cc3[nH]c(cc4[nH]c(cc5nc6c2C(=O)N(CCCCCC)C(=O)C6=C5C)c(CC)c4C)c(C(C)OC)c3C)[C@H]1C (stereo partly drawn)"
observed_value = 4.35

[[record]]
compound = "CCCCCCNC(=O)CC[C@@H]1c2nc(cc3[nH]c(cc4[nH]c(cc5nc6c2C(=O)N(CCCCCC)C(=O)C6=C5C)c(CC)c4C)c(C(C)OCCCCC)c3C)[C@H]1C (stereo partly drawn)"
observed_value = 3.32

[[record]]
compound = "CCCCCCCCOC(C)C1=C(C)c2cc3nc(c4c5[nH]c(cc6[nH]c(cc1n2)c(C)c6CC)c(C)c5C(=O)N(CCCCCC)C4=O)[C@@H](CCC(=O)OC)[C@@H]3C (stereo partly drawn)"
observed_value = 2.9

[[record]]
compound = "CCCCCCCOC(C)C1=C(C)c2cc3nc(c4c5[nH]c(cc6[nH]c(cc1n2)c(C)c6CC)c(C)c5C(=O)N(CCCCCC)C4=O)[C@@H](CCC(=O)NCCCCCC)[C@@H]3C (stereo partly drawn)"
observed_value = 3.59


Prompt: Returns the measured Ratio for the input compound. Input: CCCCCCNC(=O)CC[C@@H]1c2nc(cc3[nH]c(cc4[nH]c(cc5nc6c2C(=O)N(CCCCCC)C(=O)C6=C5C)c(CC)c4C)c(C(C)OCCC)c3C)[C@H]1C (stereo partly drawn)
Response: 2.69

Prompt: Returns the measured Ratio for the input compound. Input: CCCCCCOC(C)C1=C(C)c2cc3nc(c4c5[nH]c(cc6[nH]c(cc1n2)c(C)c6CC)c(C)c5C(=O)N(CCCCCC)C4=O)[C@@H](CCC(=O)OC)[C@@H]3C (stereo partly drawn)
Response: 8

Prompt: Returns the measured Ratio for the input compound. Input: CCCCCCN1C(=O)c2c3nc(cc4nc(cc5[nH]c(cc6[nH]c2c(c6C)C1=O)c(CC)c5C)C(C(C)OCCCC)=C4C)[C@@H](C)[C@@H]3CCC(=O)OC (stereo partly drawn)
Response: 2.22

* * *

tested on: Mus musculus; experiment: Percent tumor response in mice (implanted with RIF tumor) on day 7 at 24 hours post injection (1.0 umol/kg); format: functional
Experimental readout: Tumor response (%)
Write the number in % without appending the unit.

[[record]]
compound = "CCCCCCOC(C)C1=C(C)c2cc3nc(c4c5[nH]c(cc6[nH]c(cc1n2)c(C)c6CC)c(C)c5C(=O)N(CCCCCC)C4=O)[C@@H](CCC(=O)OC)[C@@H]3C (stereo partly drawn)"
assay_target = "Mus musculus"
observed_value = 100

[[record]]
compound = "CCCCCCN1C(=O)c2c3nc(cc4nc(cc5[nH]c(cc6[nH]c2c(c6C)C1=O)c(CC)c5C)C(C(C)OCCCC)=C4C)[C@@H](C)[C@@H]3CCC(=O)OC (stereo partly drawn)"
assay_target = "Mus musculus"
observed_value = 100

[[record]]
compound = "CCCCCCNC(=O)CC[C@@H]1c2nc(cc3[nH]c(cc4[nH]c(cc5nc6c2C(=O)N(CCCCCC)C(=O)C6=C5C)c(CC)c4C)c(C(C)OCCCCC)c3C)[C@H]1C (stereo partly drawn)"
assay_target = "Mus musculus"
observed_value = 20

[[record]]
compound = "CCCCCCNC(=O)CC[C@@H]1c2nc(cc3[nH]c(cc4[nH]c(cc5nc6c2C(=O)N(CCCCCC)C(=O)C6=C5C)c(CC)c4C)c(C(C)OC)c3C)[C@H]1C (stereo partly drawn)"
assay_target = "Mus musculus"
observed_value = 0

[[record]]
compound = "CCCCCCNC(=O)CC[C@@H]1c2nc(cc3[nH]c(cc4[nH]c(cc5nc6c2C(=O)N(CCCCCC)C(=O)C6=C5C)c(CC)c4C)c(C(C)OCCC)c3C)[C@H]1C (stereo partly drawn)"
assay_target = "Mus musculus"
observed_value = 67


Prompt: Returns the measured Tumor response for the input compound. Input: CCCCCCCCCCOC(C)C1=C(C)c2cc3nc(c4c5[nH]c(cc6[nH]c(cc1n2)c(C)c6CC)c(C)c5C(=O)N(CCCCCC)C4=O)[C@@H](CCC(=O)OC)[C@@H]3C (stereo partly drawn)
Response: 100

Prompt: Returns the measured Tumor response for the input compound. Input: CCCCCCCOC(C)C1=C(C)c2cc3nc(c4c5[nH]c(cc6[nH]c(cc1n2)c(C)c6CC)c(C)c5C(=O)N(CCCCCC)C4=O)[C@@H](CCC(=O)NCCCCCC)[C@@H]3C (stereo partly drawn)
Response: 50

Prompt: Returns the measured Tumor response for the input compound. Input: CCCCCCCCOC(C)C1=C(C)c2cc3nc(c4c5[nH]c(cc6[nH]c(cc1n2)c(C)c6CC)c(C)c5C(=O)N(CCCCCC)C4=O)[C@@H](CCC(=O)OC)[C@@H]3C (stereo partly drawn)
Response: 10

Where do these numbers come from? They come from ChEMBL document CHEMBL1132754.
